SYSTEM UNDER TEST: A. mellifera α5 nAChR (Apis mellifera, UniProt A0A0H3V1C5)
Sequence (A0A0H3V1C5 entry or part of it): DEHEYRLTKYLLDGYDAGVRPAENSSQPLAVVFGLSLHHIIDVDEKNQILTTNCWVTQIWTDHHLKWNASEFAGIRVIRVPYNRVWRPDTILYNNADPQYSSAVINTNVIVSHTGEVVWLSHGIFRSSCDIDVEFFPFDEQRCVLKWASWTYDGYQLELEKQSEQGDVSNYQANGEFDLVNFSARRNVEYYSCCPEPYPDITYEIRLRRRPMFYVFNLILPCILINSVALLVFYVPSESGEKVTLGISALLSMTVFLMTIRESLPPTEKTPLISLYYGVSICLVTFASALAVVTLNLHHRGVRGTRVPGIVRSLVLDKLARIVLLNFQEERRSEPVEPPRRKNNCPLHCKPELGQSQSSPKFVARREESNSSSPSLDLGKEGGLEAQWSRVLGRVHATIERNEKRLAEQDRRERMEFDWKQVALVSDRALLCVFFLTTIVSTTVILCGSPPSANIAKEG
PROTOCOL TEXT: Two-electrode voltage clamp of X. laevis oocytes expressing the A. mellifera α5 nAChR (wild-type)
Assay type: cell-based
QUANTITY MEASURED: Hill coefficient

Request: Form field: Hill coefficient recorded for NCCc1c[nH]cn1 [Histamine, histamine] with A. mellifera α5 nAChR (Apis mellifera, UniProt A0A0H3V1C5) (enter value)
Result: 2.500 (1.050–3.950)

Request: Hello, I am looking for reported Hill coefficient with A. mellifera α5 nAChR (Apis mellifera, UniProt A0A0H3V1C5) for CC(=O)OCC[N+](C)(C)C [Acetylcholine, acetylcholine] . Could you help?
Result: 2.304 (1.886–2.721)

Request: # value lookup — system A. mellifera α5 nAChR (Apis mellifera, UniProt A0A0H3V1C5), readout Hill coefficient, item NCCc1ccc(O)c(O)c1 [Dopamine, dopamine]
Result: 2.220 (1.585–2.855)

Request: Param readout = Hill coefficient; param system = A. mellifera α5 nAChR (Apis mellifera, UniProt A0A0H3V1C5); param query = C[N+](C)(C)CCO [Choline] ; response: value
Result: 2.043 (0.9065–3.180)

----------
SYSTEM UNDER TEST: A. mellifera α5 nAChR (Apis mellifera)
PROTOCOL TEXT: Two-electrode voltage clamp of X. laevis oocytes expressing the A. mellifera α5 nAChR (wild-type)
Type: cell-based
RUN PARAMETERS: EC50
QUANTITY MEASURED: EC50 (mM)
Supply the numeric figure in mM, leaving out any unit text.

Request: Tell me the measured EC50 of `C[N+](C)(C)CCO` , please.
Result: 9.07
